Cited source for all entries: the supplement of paper PMC8728848

testedTarget: Fuc(a1-2)[Gal(a1-3)]Gal(b1-4)[Fuc(a1-3)]Glc
measurementNotes: glycan array binding signal (z-score within array); higher = stronger binding
conditions: glycan notation: IUPAC condensed, linker removed
This is one part of a sample in which the strongest signals are shown more often than they occur.
glycan array binding signal (z-score): recorded values
The answer should be a number; do not append a unit.

SCA (Schizophyllum commune) (protein) MGIDQGVYLITNAGSGTAATLKDGYVKGWERIKGKEQLNQLWFVKSVKTSASDPGYAAFNLATNKVLDLEKGLADRGTPILGWDYHEGDNQHWVIKKQADGKYYKIQSVKTQTFVDLNNGGKDNGTKIQGWVGSWDETNSHQRWVFNQFSATGSRIKSILDTHPKIHGKVIVEWPDRIYFTPDQYIFEAIWAKTGLADIKPRDPLFQSEAYEKVFKGWVVSRAQEIIKVDGFDILVGSLSLVEKSTQKIKVLDVSVRTSDDKSPDLSQIVFFDPESGRTLVDIPEGYEVNSVII : -0.163
LSECtin (Homo sapiens), Q6UXB4 (protein) MDTTRYSKWGGSSEEVPGGPWGRWVHWSRRPLFLALAVLVTTVLWAVILSILLSKASTERAALLDGHDLLRTNASKQTAALGALKEEVGDCHSCCSGTQAQLQTTRAELGEAQAKLMEQESALRELRERVTQGLAEAGRGREDVRTELFRALEAVRLQNNSCEPCPTSWLSFEGSCYFFSVPKTTWAAAQDHCADASAHLVIVGGLDEQGFLTRNTRGRGYWLGLRAVRHLGKVQGYQWVDGVSLSFSHWNQGEPNDAWGRENCVMMLHTGLWNDAPCDSEKDGWICEKRHNC : -0.135

Task: Fill in: glycan array binding signal (z-score) of CVN (Nostoc ellipsosporum), P81180 (protein) LGKFSQTCYNSAIQGSVLTSTCERTNGGYNTSSIDLNSVIENVDGSLKWQPSNFIETCRNTQLAGSSELAAECKTRAQQFVSTKINLDDHIANIDGTLKYE is ___
Output: -0.107
